Just for reference, paper PMC7409197 is where these values come from.

- system-under-test: A2AAR (Homo sapiens, UniProt P29274)
- Sequence (P29274 whole entry): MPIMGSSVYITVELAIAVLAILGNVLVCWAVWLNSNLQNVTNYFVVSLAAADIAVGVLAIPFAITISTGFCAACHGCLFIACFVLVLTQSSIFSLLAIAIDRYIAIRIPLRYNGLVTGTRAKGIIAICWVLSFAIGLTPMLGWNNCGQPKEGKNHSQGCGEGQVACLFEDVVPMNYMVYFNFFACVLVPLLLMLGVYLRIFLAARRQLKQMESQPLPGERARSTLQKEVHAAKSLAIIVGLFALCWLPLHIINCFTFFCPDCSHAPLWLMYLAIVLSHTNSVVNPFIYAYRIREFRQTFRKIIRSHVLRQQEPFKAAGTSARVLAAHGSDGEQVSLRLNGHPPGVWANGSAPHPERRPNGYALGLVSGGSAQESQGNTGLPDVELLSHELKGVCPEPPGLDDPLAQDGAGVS
- experiment-summary: A2AAR functional antagonism (IC50), method not described
- cond: unpublished results of the authors; read-out: IC50A2AAR
parameter: IC50 (nM)
Your answer should be a plain number; it is taken to be in nM.

Consider the compound shown here: `CCn1c(Cl)nc2c(N)nc(OCCc3ccccc3)nc21` What is its recorded IC50?
251

====

Sequence of the target: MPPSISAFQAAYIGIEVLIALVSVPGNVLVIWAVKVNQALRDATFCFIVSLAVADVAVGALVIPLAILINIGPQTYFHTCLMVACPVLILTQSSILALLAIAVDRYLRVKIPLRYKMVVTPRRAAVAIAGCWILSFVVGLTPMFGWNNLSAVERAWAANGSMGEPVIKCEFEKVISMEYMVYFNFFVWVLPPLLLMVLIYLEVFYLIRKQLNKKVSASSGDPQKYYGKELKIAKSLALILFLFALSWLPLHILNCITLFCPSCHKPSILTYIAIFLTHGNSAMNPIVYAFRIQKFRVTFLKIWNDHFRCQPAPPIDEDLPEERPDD
parameter: Ki (µM)
Your answer should be a plain number; it is taken to be in µM.

Consider the compound shown here: `CCn1c(Cl)nc2c(N)nc(OCCc3ccccc3)nc21` What is its recorded Ki?
0.017

====

- system-under-test: A2AAR (Homo sapiens, UniProt P29274)
parameter: Ki (nM)
Your answer should be a plain number; it is taken to be in nM.

Consider the molecule shown here: CCn1c(Cl)nc2c(N)nc(OCCc3ccccc3)nc21 [Compound C2, 8-chloro-9-ethyl-2-phenethoxyadenine] What is its recorded Ki?
0.75
